These data points were gathered from the supplement of paper PMC5908809.

System: NKL (IL-2 2.5 ng/mL);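 further: normalised to DMSO-only wells as negative and benzethonium chloride as positive control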
Experiment: percent inhibition of viability; higher = more inhibition
Settings: 72 h; 10 nM
endpoint-label: percent inhibition of viability (%)
Give bare numbers, in %.

O=C(CCCCCCNC(=O)c1cnc(N(c2ccccc2)c2ccccc2)nc1)NO [Rocilinostat] (max concentration tested 10000 nM); -16

Please state, for each entry, its recorded percent inhibition of viability.
1. COc1cc([C@@H]2c3cc4c(cc3[C@@H](O[C@@H]3O[C@@H]5CO[C@@H](C)O[C@H]5[C@H](O)[C@H]3O)[C@H]3COC(=O)[C@H]23)OCO4)cc(OC)c1O [Etoposide] (max concentration tested 10000 nM)
2. CN1CCN(c2nc(C3=C(c4c[nH]c5ccccc45)C(=O)NC3=O)c3ccccc3n2)CC1 [Sotrastaurin] (max concentration tested 10000 nM)

[4.8, 2.68]

Please state, for each entry, its recorded percent inhibition of viability.
1. Cc1ccc(Nc2nccc(N(C)c3ccc4c(C)n(C)nc4c3)n2)cc1S(N)(=O)=O [Pazopanib] (max concentration tested 10000 nM)
2. Cn1ncnc1[C@H]1c2n[nH]c(=O)c3cc(F)cc(c23)N[C@@H]1c1ccc(F)cc1 [Talazoparib] (max concentration tested 1000 nM)

[-17.8, 72]

Please state, for each entry, its recorded percent inhibition of viability.
1. CC[C@H](CC#N)OC(=O)N[C@@H](C)c1cccc(NC(=O)Nc2ccc(-c3cnco3)c(OC)c2)c1 [AVN944] (max concentration tested 10000 nM)
2. Cc1c(CN2CCN(C(=O)[C@H](C)O)CC2)sc2c(N3CCOCC3)nc(-c3cnc(N)nc3)nc12 [Apitolisib] (max concentration tested 10000 nM)

[-12.7, -7.01]
